Molecular target: recombinant human OX40 fused to a His-tag (Acro Biosystems, cat. no. OX0-H5224) (human) (UniProt P43489)
Sequence (P43489 29-214 limits assumed): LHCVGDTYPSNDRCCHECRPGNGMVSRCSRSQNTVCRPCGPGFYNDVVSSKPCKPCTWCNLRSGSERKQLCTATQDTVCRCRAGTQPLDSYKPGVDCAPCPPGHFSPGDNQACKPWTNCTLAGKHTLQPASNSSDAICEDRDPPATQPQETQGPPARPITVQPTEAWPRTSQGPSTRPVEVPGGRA
Experiment: BLI cross-block; first Ab (competitor): IgG1-CD134-RG7888
measured-attribute: association response (nm)
I only need the number, in nm, no unit after it.

Q) Find the recorded association response belonging to IgG1-CD134-GBR830 (antibody, INN chains, looked up, V domains shown, IgG1) VH: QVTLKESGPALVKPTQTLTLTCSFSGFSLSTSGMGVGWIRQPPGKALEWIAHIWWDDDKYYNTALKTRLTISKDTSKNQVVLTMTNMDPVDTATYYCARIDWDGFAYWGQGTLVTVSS VL: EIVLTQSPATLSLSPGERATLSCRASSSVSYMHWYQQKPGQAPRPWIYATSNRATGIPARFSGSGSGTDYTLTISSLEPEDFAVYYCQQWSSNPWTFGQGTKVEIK and report it.
A) 0.61
